Recorded values, source ChEMBL document CHEMBL4033721.

Tested on: Mycobacteroides chelonae
Procedure Summary: Antimycobacterial activity against Mycobacterium chelonae ATCC 35752 after 8 days by resazurin microtiter based colorimetric assay
Assay type: functional
Assay Context: ATCC 35752, 192 h
Metric: MIC

Worked set:
>  <Compound>
C[C@H]1CC[C@H](NC(=O)c2cc3ccccc3[nH]2)CC1

>  <Result>
> 32 µg/mL

$$$$
>  <Compound>
Cc1cc(C)c2cc(C(=O)NC34CC5CC(CC(C5)C3)C4)[nH]c2c1

>  <Result>
> 32 µg/mL

$$$$
>  <Compound>
Cc1cc(C)c2cc(C(=O)NC(C)C34CC5CC(CC(C5)C3)C4)[nH]c2c1 (stereo unspecified)

>  <Result>
16 µg/mL

$$$$
>  <Compound>
Cc1cc(C)c2cc(C(=O)N[C@H]3CC[C@H](C)CC3)[nH]c2c1

>  <Result>
≤ 0.06 µg/mL

$$$$
>  <Compound>
Cc1cc(C)c2cc(C(=O)NCc3cccc(Cl)c3)[nH]c2c1

>  <Result>
> 32 µg/mL

$$$$

Switching to the query record.
Any idea what MIC was measured for O=C(NC1CCCCC1)c1cc2ccccc2[nH]1 ?
> 32 µg/mL

---

Procedure Summary: Antimycobacterial activity against Mycobacterium massiliense isolate CRM0019 after 8 days by resazurin microtiter based colorimetric assay
Format: functional, Mycobacterium abscessus subsp. massiliense
Assay Context: Mycobacteroides abscessus, isolate CRM0019, 192 h
Metric: MIC

Any idea what MIC was measured for CC1CCC(NC(=O)c2cc3ccccc3[nH]2)CC1 (mixture of isomers) ?
16 mg/L

Any idea what MIC was measured for C[C@@H]1[C@H]2C[C@@H](C[C@H]1NC(=O)c1cc3ccccc3[nH]1)C2(C)C ?
0.06 mg/L

---

Overview of reported MIC across a group of compounds:
Procedure Summary: Antimycobacterial activity against Mycobacterium massiliense isolate CRM0019 after 8 days by resazurin microtiter based colorimetric assay
Type: functional, Mycobacterium abscessus subsp. massiliense
Assay Context: Mycobacteroides abscessus, isolate CRM0019, 192 h

>  <Compound>
O=C(NC1CCCCC1)c1cc2ccccc2[nH]1

>  <MIC>
> 32 µg/mL

$$$$
>  <Compound>
O=C(NCC12CC3CC(CC(C3)C1)C2)c1cc2ccccc2[nH]1

>  <MIC>
> 32 µg/mL

$$$$
>  <Compound>
CCCCCCCCNC(=O)c1cc2c(C)cc(C)cc2[nH]1

>  <MIC>
> 32 µg/mL

$$$$
>  <Compound>
Cc1cc(C)c2cc(C(=O)NC3CCCC3)[nH]c2c1

>  <MIC>
8 µg/mL

$$$$
>  <Compound>
Cc1cc(C)c2cc(C(=O)NC3CCC(C)CC3)[nH]c2c1 (mixture of isomers)

>  <MIC>
≤ 0.06 µg/mL

$$$$

Switching to the query record.
Any idea what MIC was measured for C[C@H]1CC[C@H](NC(=O)c2cc3ccccc3[nH]2)CC1 ?
> 32 µg/mL
